Procedure Text: Cytotoxicity against human NCI-H460/MX20 cells assessed as inhibition of cell viability at 5 to 25 uM incubated for 2 hrs by MTT assay relative to control
Assay type: cell-based
Condition Set: read-out: INH
Recorded Metric: cytotoxicity at 2 h, up to 25 µM

Compound Structure: COc1ccc(C(=O)c2ccc3[nH]cc(C(=O)c4ccc(OC)cc4)c3c2OC)cc1
cytotoxicity at 2 h, up to 25 µM: < 20%

Proceeding to the next molecule to report its cytotoxicity at 2 h, up to 25 µM.
Query COc1ccc(C(=O)c2c[nH]c3ccc(OC)cc23)cc1 yields cytotoxicity at 2 h, up to 25 µM of < 20%
